The measured values listed here are drawn from ChEMBL document CHEMBL3098064.

# experiment summary: Inhibition of Streptococcus mutans OMZ65 recombinant sortase A delta-40 mutant using Dabcyl-QALPETGEE-Edans as substrate after 1 hr by fluorescence spectrophotometry

| compound | result unit | bound operator | IC50 |
| --- | --- | --- | --- |
| COc1cc(C[C@@H]2COC(=O)[C@]2(O)Cc2ccc(O)c(OC)c2)ccc1O | µM | > | 100 |
| COc1cc(C[C@@H]2COC(=O)[C@@]2(Cc2ccc(O)c(OC)c2)O[C@@H]2O[C@H](CO)[C@@H](O)[C@H](O)[C@H]2O)ccc1O | µM | = | 41.2 |
| COc1cc([C@@H]2OC[C@@H]3[C@H]2CO[C@H]3c2ccc(O)c(OC)c2)ccc1O [(+)-PINORESINOL] | µM | = | 67.7 |
| O=C(O)/C=C/c1ccc(O)c(O)c1 [CAFFEIC ACID] | µM | = | 20.2 |
| COc1cc([C@H]2Oc3c(OC)cc(CCCO)cc3[C@H]2CO[C@@H]2O[C@H](CO)[C@@H](O)[C@H](O)[C@H]2O)ccc1O | µM | = | 82.8 |
| COc1cc([C@H]2Oc3c(OC)cc(CCCO[C@@H]4O[C@H](CO)[C@@H](O)[C@H](O)[C@H]4O)cc3[C@H]2CO)ccc1O | µM | = | 37.3 |
| O=C(/C=C/c1ccc(O)c(O)c1)O[C@H](C(=O)O)[C@@H](OC(=O)/C=C/c1ccc(O)c(O)c1)C(=O)O | µM | = | 60 |
| COc1cc(/C=C/C(=O)O)ccc1O [FERULATE] | µM | > | 100 |
| COc1cc([C@H]2Oc3c(OC)cc(CCCO)cc3[C@H]2CO)ccc1O | µM | = | 35.9 |
| O=C(/C=C/c1ccc(O)c(O)c1)O[C@@H](Cc1ccc(O)c(O)c1)C(=O)O | µM | = | 20.1 |
| CO[C@@H](Cc1ccc(O)cc1)C(=O)O | µM | > | 100 |
| COc1cc(C[C@H]2COC(=O)[C@@H]2Cc2ccc(O)c(OC)c2)ccc1O [MATAIRESINOL] | µM | > | 100 |
